- protocol summary: Volume of distribution at steady state in rat at 2 mg/kg, iv and 4 mg/kg, po
- Format: ADME, organism-based
- measurement context: in vivo, read-out: Vdss
Catalogue of compounds with associated Vd

Solved cases (4 shown):
O=C(Cn1c(=O)sc2ccc(Cl)cc21)N1CCCC(c2ccccc2)C1CN1CCOCC1 (racemic)    26 L/kg
N#CCN(CC(=O)N1CCCC(c2ccccc2)C1CN1CCOCC1)c1ccc(Cl)c(Cl)c1 (racemic)    8 L/kg
N#CCN(CC(=O)N1CCCC(c2ccccc2)C1CN1CCCC1)c1ccc(Cl)c(Cl)c1 (racemic)    27 L/kg
COCCN(CC(=O)N1CCCC(c2ccccc2)C1CN1CCCC1)c1ccc(Cl)c(Cl)c1 (stereo not given)    27 L/kg

Next compound, Vd to be filled in.
*Q* Please give the measured Vd for this compound: CN(CC(=O)N1CCCC(c2ccccc2)C1CN1CCCC1)c1ccc(Cl)c(Cl)c1 (racemic)
*A* 23 L/kg

From: ChEMBL document CHEMBL1145579
